Here the recorded normalized growth is given for each entry.
Assay: chemical genetic growth profiling, strain panel (AID 1159580);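 also: tested at 20 µM; growth read once vehicle control cultures reached saturation at 30 °C; 1 = growth at the plate median or of vehicle wells; lower values mean less growth of the strain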
Conditions: S. cerevisiae deletion strains, growth OD, locus YGL227W, strain vid30, hits give low values
The whole screen tested about 5,500 compounds, of which about 2,000 (36%) were called active. Roughly 18% stayed inconclusive and do not appear here. The list shows a part of the results.
Measurement Label: normalized growth

- Compound: "O=C(CNC(=O)c1ccc(Cl)cc1)NO"
  Measurement Label: "normalized growth"
  Meas Value: 1.01
- Compound: "O=C(O)CC(O)(CC(=O)O)C(=O)O"
  Measurement Label: "normalized growth"
  Meas Value: 1.01
- Compound: "FC(F)(F)c1ccccc1-n1ccnc1"
  Measurement Label: "normalized growth"
  Meas Value: 1.02
- Compound: "Nc1ccc(S(=O)(=O)Nc2cnc3ccccc3n2)cc1"
  Measurement Label: "normalized growth"
  Meas Value: 1.02
- Compound: "CNC(=O)O/N=C\\C(C)(C)SC"
  Measurement Label: "normalized growth"
  Meas Value: 1.01
- Compound: "CCC(C)C(NC)C(=O)O (stereo unspecified)"
  Measurement Label: "normalized growth"
  Meas Value: 1.02

---

Assay: chemical genetic growth profiling, strain panel (AID 1159580)
Conditions: S. cerevisiae deletion strains, growth OD, locus YEL061C, strain CIN8, hits give low values
Hit rate of the full screen: of about 5,500 compounds, about 2,000 (36%) were called active. Not shown: some 18% with an inconclusive outcome. The list shows a part of the results.
normalized growth by entry:

- Molecule: "CSC(=CC(=O)c1ccc(Cl)cc1)SC"
  normalized growth: 0.74
- Molecule: "CC(C)(C)OC(=O)C(C)(C)S(=O)(=O)c1ccc(Cl)cc1"
  normalized growth: 1
- Molecule: "S=c1[nH]nc(SCCSc2n[nH]c(=S)s2)s1"
  normalized growth: 1.02
- Molecule: "Cc1c(S(=O)(=O)c2ccc(Cl)cc2)cnc2cc(C(C)(C)C)nn12"
  normalized growth: 1.01
- Molecule: "NCCC(=O)N[C@@H](Cc1cnc[nH]1)C(=O)O"
  normalized growth: 0.997
- Molecule: "N#CC(C#N)=CNc1cccc(N)n1"
  normalized growth: 1

---

Assay: chemical genetic growth profiling, strain panel (AID 1159580)
Settings: S. cerevisiae deletion strains, growth OD, locus YPL240C, strain hsp82, hits give low values
Among all 5,500 compounds or so, about 2,000 (36%) were called active. Roughly 18% stayed inconclusive and do not appear here. The list shows a part of the results.

- Compound: "C#C[C@]1(O)CCC2C3CCC4=C(CCC(=O)C4)C3CC[C@@]21C (some centres undefined)"
  normalized growth: 0.981
- Compound: "OC(CCN1CCCCC1)(c1ccccc1)C1CCCCC1 (centres undefined)"
  normalized growth: 0.976
- Compound: "CC1OC(=O)C(C(C)C)NC(=O)C(C(C)C)OC(=O)C(C(C)C)NC(=O)C(C)OC(=O)C(C(C)C)NC(=O)C(C(C)C)OC(=O)C(C(C)C)NC(=O)C(C)OC(=O)C(C(C)C)NC(=O)C(C(C)C)OC(=O)C(C(C)C)NC1=O (centres undefined)"
  normalized growth: 0.412
- Compound: "Cc1cc(C(C)(C)C)c(O)c(C(C)(C)C)c1"
  normalized growth: 0.985
- Compound: "C[C@]12CCC(=O)C=C1CCC1C2[C@@H](O)C[C@@]2(C)C1CC[C@]2(O)C(=O)CO (some centres undefined)"
  normalized growth: 0.992
- Compound: "Nc1c2ccccc2nc2ccccc12"
  normalized growth: 0.8
- Compound: "N=C(N)SCCN"
  normalized growth: 1.02
- Compound: "CC1(C)CC[C@]2(C(=O)O)CC[C@]3(C)C(=CCC4[C@@]5(C)CC[C@H](O)[C@@](C)(CO)C5CC[C@]43C)C2C1 (some centres undefined)"
  normalized growth: 1.02
- Compound: "Nc1c2c(nc3ccccc13)CCCC2"
  normalized growth: 0.987
- Compound: "COc1cccc2c1C(=O)c1c(O)c3c(c(O)c1C2=O)C[C@@](O)(C(C)=O)C[C@@H]3O[C@H]1C[C@H](N)[C@H](O)[C@H](C)O1"
  normalized growth: 0.98
- Compound: "COc1ccc2c(c1)c(CC(=O)OCC(=O)O)c(C)n2C(=O)c1ccc(Cl)cc1"
  normalized growth: 0.982
- Compound: "CC(CC(=O)C(O)C(C)(C)O)C1C(=O)CC2(C)C3=CCC4C(C)(C)C(OC5OCC(O)C(O)C5O)CCC45CC35C(O)CC12C (centres undefined)"
  normalized growth: 1.02
- Compound: "CCC(C)C(=O)O[C@H]1[C@H](O)C2C(CN3CC(C)CCC3[C@@]2(C)O)C2C[C@]34O[C@]5(O)C(OC(=O)C(C)(O)CC)CC[C@@]3(C)C5C(OC(C)=O)[C@@H](OC(C)=O)C4[C@@]21O (some centres undefined)"
  normalized growth: 1.01
- Compound: "CCCCCCCCCCCC[C@H](C(=O)O)[C@@H](C)C(=O)O"
  normalized growth: 0.973
- Compound: "CNC(=O)O/N=C\\C(C)(C)SC"
  normalized growth: 1.01
- Compound: "CCOc1ccc2nc3cc(N)ccc3c(N)c2c1"
  normalized growth: 0.623
- Compound: "COc1ccc2c3c([nH]c2c1)C(C)=NCC3"
  normalized growth: 0.996
- Compound: "CC(C)(Sc1cc(C(C)(C)C)c(O)c(C(C)(C)C)c1)Sc1cc(C(C)(C)C)c(O)c(C(C)(C)C)c1"
  normalized growth: 1.03
- Compound: "Cc1cc(O)ccc1Cl"
  normalized growth: 1.02
- Compound: "Cc1cc(-n2c(=O)[nH]c(=O)n(C)c2=O)ccc1Oc1ccc(SC(F)(F)F)cc1"
  normalized growth: 0.954
- Compound: "O=c1ccc2ccc(O)cc2o1"
  normalized growth: 0.998
- Compound: "NC(Cc1c[nH]c2ccccc12)C(=O)O (centres undefined)"
  normalized growth: 1.02
- Compound: "COc1c(-c2coc3cc4c(cc3c2=O)CC(OC(C)=O)C(C)(C)O4)ccc2c1C=CC(C)(C)O2 (centres undefined)"
  normalized growth: 1.02
- Compound: "NC(N)=N/N=C/c1c(Cl)cccc1Cl"
  normalized growth: 0.977
- Compound: "Nc1ccc(S(=O)(=O)c2ccc(N)cc2)cc1"
  normalized growth: 0.991
- Compound: "Cc1ccnc(NS(=O)(=O)c2ccc(N)cc2)n1"
  normalized growth: 0.989
- Compound: "CC(=O)NC(C(=O)O)C(C)(C)SN=O (centres undefined)"
  normalized growth: 0.999
- Compound: "COc1ccc2c(c1)c(CC(=O)O)c(C)n2C(=O)c1ccc(Cl)cc1"
  normalized growth: 0.978
- Compound: "CC(=O)O[C@@H]1CC[C@@]2(C)C(CC[C@]3(C)C2CC=C2C4CC(C)(C)CC[C@]4(C(=O)O)CC[C@]23C)C1(C)C (some centres undefined)"
  normalized growth: 0.985

---

Assay: chemical genetic growth profiling, strain panel (AID 1159580);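 also: tested at 20 µM; growth read once vehicle control cultures reached saturation at 30 °C; 1 = growth at the plate median or of vehicle wells; lower values mean less growth of the strain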
Settings: S. cerevisiae deletion strains, growth OD, locus YIL125W, strain kgd1, hits give low values
Out of some 5,500 compounds screened, about 2,000 (36%) were called active. Another 18% or so got no clear call; they are omitted. The list shows a part of the results.
Measurement Label: normalized growth

- Compound: "C[C@@H]1C(=O)O[C@H]2[C@H]1CC[C@@]1(C)C=CC(=O)[C@@]3(C)O[C@@]213"
  Meas Value: 1.03
- Compound: "COC(=O)Nc1nc2ccc(C(=O)c3ccccc3)cc2[nH]1"
  Meas Value: 0.971
- Compound: "CC1C(=O)OC2C1CCC1(C)C=CC(=O)C3(C)OC213 (stereo not given)"
  Meas Value: 1.01
- Compound: "Nc1c2ccccc2nc2ccccc12"
  Meas Value: 0.803
- Compound: "C[C@@H]1CC[C@H]2[C@@H](C)C(O)O[C@@H]3O[C@@]4(C)CC[C@@H]1[C@]32OO4 (stereo not given in full)"
  Meas Value: 0.411

---

Assay: chemical genetic growth profiling, strain panel (AID 1159580);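 also: tested at 20 µM; growth read once vehicle control cultures reached saturation at 30 °C; 1 = growth at the plate median or of vehicle wells; lower values mean less growth of the strain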
Settings: S. cerevisiae deletion strains, growth OD, locus YAL030W, strain snc1, hits give low values
In all, about 5,500 compounds went through this assay and about 2,000 (36%) were called active. Not shown: some 18% with an inconclusive outcome. Some of the results follow.

- Molecule: "O=C(O)CC(O)(CC(=O)O)C(=O)O"
  normalized growth: 1
- Molecule: "CC(=O)O[C@@H]1CC[C@@]2(C)C(CC[C@]3(C)C2CC=C2C4CC(C)(C)CC[C@]4(C(=O)O)CC[C@]23C)C1(C)C (stereo partly drawn)"
  normalized growth: 0.98
- Molecule: "O=c1[nH]cc(F)c(=O)[nH]1"
  normalized growth: 0.642

---

Assay: chemical genetic growth profiling, strain panel (AID 1159580);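 also: tested at 20 µM; growth read once vehicle control cultures reached saturation at 30 °C; 1 = growth at the plate median or of vehicle wells; lower values mean less growth of the strain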
Details: S. cerevisiae deletion strains, growth OD, locus YLR262C, strain YPT6 (second series)
Among all 5,500 compounds or so, about 2,000 (36%) were called active. Roughly 18% stayed inconclusive and do not appear here. Cut-off read from the data, not from the text of the source: active = normalized growth mostly below about 0.91 (no sharp cut-off); inconclusive = no clear call, values can overlap the other calls; inactive = mostly above about 0.92. The list shows a part of the results.
Outcome codes: active, inactive

- Molecule: "Nc1c2ccccc2nc2ccccc12"
  Class Name: "active"
- Molecule: "Cc1ccnc(NS(=O)(=O)c2ccc(N)cc2)n1"
  Class Name: "inactive"
- Molecule: "C[C@@H]1CC[C@]2(C(=O)O)CC[C@]3(C)C(=CCC4[C@@]5(C)CC[C@H](O)C(C)(C)C5CC[C@]43C)C2[C@H]1C (some centres not stated)"
  Class Name: "inactive"
- Molecule: "CC1=NS(=O)(=O)c2cc(Cl)ccc2N1"
  Class Name: "inactive"
- Molecule: "CC1(C)CCC2(C(=O)O)CCC3(C)C(=CCC4C5(C)CCC(O)C(C)(C)C5C(O)CC43C)C2C1 (configuration not stated)"
  Class Name: "inactive"
- Molecule: "CC1(C)CC(O)C2(C)CCC3(C)C(=CCC4C5(C)CCC(O)C(C)(CO)C5CCC43C)C2C1 (configuration not stated)"
  Class Name: "inactive"
- Molecule: "N=C(N)SCCN"
  Class Name: "inactive"
- Molecule: "COc1cc(C(=O)NCCCCCC(=O)O)cc(OC)c1OC"
  Class Name: "inactive"
- Molecule: "CC(=O)O[C@@H]1CC[C@@]2(C)C(CC[C@]3(C)C2CC=C2C4CC(C)(C)CC[C@]4(C(=O)O)CC[C@]23C)C1(C)C (some centres not stated)"
  Class Name: "inactive"
- Molecule: "CCOP(=S)(OCC)Oc1nc(Cl)c(Cl)cc1Cl"
  Class Name: "active"
- Molecule: "C[C@@H]1OC(O[C@H]2C(O[C@H]3CC[C@@]4(C)C(CC[C@]5(C)C4CC=C4C6CC(C)(C)CC[C@]6(C(=O)O)CC[C@]45C)[C@]3(C)CO)OC[C@H](O)[C@@H]2O)[C@H](O)[C@H](O)[C@H]1O (some centres not stated)"
  Class Name: "active"
- Molecule: "Cc1ccc(N=CN(C)C=Nc2ccc(C)cc2C)c(C)c1"
  Class Name: "inactive"
- Molecule: "FC(F)(F)c1ccccc1-n1ccnc1"
  Class Name: "inactive"
- Molecule: "COC(=O)Nc1nc2ccc(S(=O)c3ccccc3)cc2[nH]1 (configuration not stated)"
  Class Name: "inactive"
- Molecule: "CC(C)(Sc1cc(C(C)(C)C)c(O)c(C(C)(C)C)c1)Sc1cc(C(C)(C)C)c(O)c(C(C)(C)C)c1"
  Class Name: "inactive"
- Molecule: "C/C=C1\\[C@H]2C=C(C)C[C@]1(N)c1ccc(=O)[nH]c1C2"
  Class Name: "inactive"
- Molecule: "Clc1ccccc1C(c1ccccc1)(c1ccccc1)n1ccnc1"
  Class Name: "active"
- Molecule: "CC1(C)CC[C@@]2(C(=O)O)C(C1)C1=CCC3[C@@]4(C)CC[C@H](O)C(C)(C)C4CC[C@@]3(C)[C@]1(C)C[C@@H]2O (some centres not stated)"
  Class Name: "inactive"
- Molecule: "O=C1C(O)=C(O)C(=O)C(O)=C1O"
  Class Name: "inactive"
- Molecule: "CC(C)CC(N(C)C)C1(c2ccc(Cl)cc2)CCC1 (configuration not stated)"
  Class Name: "inactive"
- Molecule: "COC(=O)C[C@H]1C(C)(C)C(=O)[C@@H]2CC3C4=CC(=O)O[C@@H](c5ccoc5)[C@]4(C)CCC3[C@@]1(C)C2=O (some centres not stated)"
  Class Name: "inactive"
- Molecule: "CNC(=O)O/N=C\\C(C)(C)SC"
  Class Name: "inactive"
- Molecule: "CCC(C)C(NC)C(=O)O (configuration not stated)"
  Class Name: "inactive"
- Molecule: "CC(CC(=O)C1OC1(C)C)C1C(=O)CC2(C)C3=CCC4C(C)(C)C(OC5OCC(O)C(O)C5O)CCC45CC35C(O)CC12C (configuration not stated)"
  Class Name: "inactive"
- Molecule: "NC(N)=N/N=C/c1c(Cl)cccc1Cl"
  Class Name: "inactive"
- Molecule: "COc1ccc2[nH]cc(CCN)c2c1"
  Class Name: "inactive"
- Molecule: "O=C(CNC(=O)c1ccc(Cl)cc1)NO"
  Class Name: "inactive"

Data origin, for the record: PubChem BioAssay AID1159580
